Ref: patent US20110160123A1

Tested on: M. smegmatis overexpressing the rv0194 gene of M. tuberculosis (SMR5/pML655)
Test: microbe, parasite or virus in culture
Format: cell-based
Conditions: Mycolicibacterium smegmatis, read-out: MIC rv0194 overexpression
Items are presented alongside their recorded log10 MIC.
property_measured: log10 MIC (log10 of the value in µg/mL)

structure_string	measured
O=C(N[C@H](CO)[C@H](O)c1ccc([N+](=O)[O-])cc1)C(Cl)Cl	1.51
CC1(C)S[C@@H]2[C@H](NC(=O)[C@H](N)c3ccccc3)C(=O)N2[C@H]1C(=O)O	2.40
CC[C@H]1OC(=O)[C@H](C)[C@@H](O[C@H]2C[C@@](C)(OC)[C@@H](O)[C@H](C)O2)[C@H](C)[C@@H](O[C@@H]2O[C@H](C)C[C@H](N(C)C)[C@H]2O)[C@](C)(O)C[C@@H](C)C(=O)[C@H](C)[C@@H](O)[C@]1(C)O	1.00
CN[C@H](CC(C)C)C(=O)N[C@H]1C(=O)N[C@@H](CC(N)=O)C(=O)N[C@H]2C(=O)N[C@H]3C(=O)N[C@H](C(=O)N[C@H](C(=O)O)c4cc(O)cc(O)c4-c4cc3ccc4O)[C@H](O)c3ccc(c(Cl)c3)Oc3cc2cc(c3O[C@@H]2O[C@H](CO)[C@@H](O)[C@H](O)[C@H]2O[C@H]2C[C@](C)(N)[C@H](O)[C@H](C)O2)Oc2ccc(cc2Cl)[C@H]1O	0.40
CO[C@@H]1[C@@H](OC(N)=O)[C@@H](O)[C@H](Oc2ccc3c(O)c(NC(=O)c4ccc(O)c(CC=C(C)C)c4)c(=O)oc3c2C)OC1(C)C	0.90
